pKi: recorded values
# assayed_system: HDAC8 (Homo sapiens)
# Sequence (Q9BY41 1-377): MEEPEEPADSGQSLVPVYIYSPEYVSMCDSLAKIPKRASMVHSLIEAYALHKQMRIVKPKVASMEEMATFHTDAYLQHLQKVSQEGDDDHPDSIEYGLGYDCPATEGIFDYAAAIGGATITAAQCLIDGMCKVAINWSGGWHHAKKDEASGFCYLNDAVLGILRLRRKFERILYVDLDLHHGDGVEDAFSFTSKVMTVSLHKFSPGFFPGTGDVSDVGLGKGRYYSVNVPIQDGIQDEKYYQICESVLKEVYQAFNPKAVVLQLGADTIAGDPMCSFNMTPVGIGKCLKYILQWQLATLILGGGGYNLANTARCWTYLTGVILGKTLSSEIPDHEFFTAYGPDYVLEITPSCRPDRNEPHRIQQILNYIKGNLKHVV
Non-standard residues stand in square brackets, D forms with d. Residues, ends and D or L forms follow the SMILES beside them. *: point of attachment. Asu = N[C@@H](CCCCCC(=O)O)C(=O)O; NHOH = ON*
In textbook form, pKi equals minus log to base ten of the concentration in mol/L.

>>> readout_number("CC(=O)N[C@@H](CC(C)C)C(=O)NCC(=O)N[C@@H](CCCCN)C(=O)NCC(=O)NCC(=O)N[C@@H](C)C(=O)N[C@@H](CCCCCC(=O)NO)C(=O)N[C@@H](CCCNC(=N)N)C(=O)N[C@@H](Cc1c[nH]cn1)C(=O)N[C@@H](CCCNC(=N)N)C(=O)N[C@@H](CCCCN)C(=O)N[C@H](C(=O)N[C@@H](CC(C)C)C(=O)N[C@@H](CCCNC(=N)N)C(=O)N[C@@H](CC(=O)O)C(=O)N[C@@H](CC(N)=O)C(=O)N[C@@H](Cc1c[nH]c2ccccc12)C(N)=O)C(C)C [16a] (Ac-LGKGGA[Asu](NHOH)RHRKVLRDNW-NH2)")
5.40

Next, consider the following compound.
Return reported pKi; argument: CC(=O)N[C@@H](C)C(=O)N[C@@H](CCCNC(=N)N)C(=O)N[C@@H](CCCCN)C(=O)N[C@@H](CO)C(=O)N[C@H](C(=O)NCC(=O)NCC(=O)N[C@@H](CCCCN)C(=O)N[C@@H](C)C(=O)N1CCC[C@H]1C(=O)N[C@@H](CCCNC(=N)N)C(=O)N[C@@H](CCCCCC(=O)NO)C(=O)N[C@@H](CCC(N)=O)C(=O)N[C@@H](CC(C)C)C(=O)N[C@@H](C)C(=O)N[C@H](C(=O)N[C@@H](Cc1c[nH]c2ccccc12)C(N)=O)[C@@H](C)O)[C@@H](C)O [13a] (Ac-ARKSTGGKAPR[Asu](NHOH)QLATW-NH2)
8.29
